Each entry below carries its recorded log10 IC50.
Measurement Target: Proteasome subunit beta type-10 (Homo sapiens, UniProt P40306)
Measurement Description: Inhibition of 20S immunoproteasome beta 2 (unknown origin) by cell based ABPP assay
Endpoint: log10 IC50 (log10 of the value in nM)

>  <Molecule>
CC(C)C[C@H](NC(=O)[C@H](Cc1ccccc1)N=[N+]=[N-])C(=O)N[C@@H](CC(F)(F)F)C(=O)N[C@H](/C=C/S(C)(=O)=O)Cc1ccc(CN)cc1

>  <log10 IC50>
2.11

$$$$
>  <Molecule>
CC(C)C[C@H](NC(=O)[C@H](Cc1ccccc1)N=[N+]=[N-])C(=O)N[C@@H](C)C(=O)N[C@H](/C=C/S(C)(=O)=O)Cc1ccc(CN)cc1

>  <log10 IC50>
2.51

$$$$
>  <Molecule>
Cc1ncc(C(=O)N[C@@H](CC2CCC3CCCCC3C2)C(=O)N[C@@H](CC(C)C)C(=O)N[C@H](/C=C/S(C)(=O)=O)Cc2ccc(CN)cc2)s1 (stereo partly specified)

>  <log10 IC50>
3.61

$$$$
>  <Molecule>
CC(C)C[C@H](NC(=O)[C@H](CC(C)C)NC(=O)[C@H](Cc1ccccc1)NC(=O)CN=[N+]=[N-])C(=O)N[C@H](/C=C/S(C)(=O)=O)Cc1ccc(CN)cc1

>  <log10 IC50>
1.34

$$$$
>  <Molecule>
Cc1ncc(C(=O)N[C@H](C(=O)N[C@@H](CC(C)C)C(=O)N[C@H](/C=C/S(C)(=O)=O)Cc2ccc(CN)cc2)C2CCCCC2)s1

>  <log10 IC50>
1.79

$$$$
>  <Molecule>
CC(C)C[C@H](NC(=O)[C@H](Cc1ccccc1)N=[N+]=[N-])C(=O)N[C@H](C(=O)N[C@H](/C=C/S(C)(=O)=O)Cc1ccc(CN)cc1)[C@@H](C)O

>  <log10 IC50>
2.52

$$$$

---

Each entry below carries its recorded IC50.
Measurement Target: Proteasome subunit beta type-10 (Homo sapiens, UniProt P40306)
Sequence (P40306 whole entry): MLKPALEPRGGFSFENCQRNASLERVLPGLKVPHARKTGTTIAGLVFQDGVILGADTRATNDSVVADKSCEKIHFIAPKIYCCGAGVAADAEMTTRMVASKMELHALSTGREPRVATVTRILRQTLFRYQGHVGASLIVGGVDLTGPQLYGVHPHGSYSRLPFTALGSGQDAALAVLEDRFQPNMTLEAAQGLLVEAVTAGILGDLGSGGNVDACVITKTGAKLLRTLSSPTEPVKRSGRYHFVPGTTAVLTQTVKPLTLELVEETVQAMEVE
Measurement Description: Inhibition of 20S immunoproteasome beta 2 in human Raji cell lysates after 1 hr by competitive ABPP assay
Assay type: subcellular, Lysate
Endpoint: IC50 (nM)

>  <Compound>
Cc1ncc(C(=O)N[C@@H](CC2CCCCC2)C(=O)N[C@@H](CC(C)C)C(=O)N[C@H](/C=C/S(C)(=O)=O)Cc2ccc(CN)cc2)s1

>  <Value>
420

$$$$
>  <Compound>
CC(C)C[C@H](NC(=O)[C@H](Cc1ccccc1)N=[N+]=[N-])C(=O)N[C@@H](CC(C)C)C(=O)N[C@H](/C=C/S(C)(=O)=O)Cc1ccc(CN)cc1

>  <Value>
20

$$$$
>  <Compound>
CC(C)C[C@H](NC(=O)[C@H](Cc1ccccc1)N=[N+]=[N-])C(=O)N[C@@H](C)C(=O)N[C@H](/C=C/S(C)(=O)=O)Cc1ccc(CN)cc1

>  <Value>
140

$$$$
>  <Compound>
CC(C)C[C@H](NC(=O)c1cnccn1)C(=O)N[C@@H](CC(C)C)C(=O)N[C@H](/C=C/S(C)(=O)=O)Cc1ccc(CN)cc1

>  <Value>
2900

$$$$
>  <Compound>
COC[C@H](NC(=O)[C@H](CC(C)C)NC(=O)c1cnc(C)s1)C(=O)N[C@H](/C=C/S(C)(=O)=O)Cc1ccc(CN)cc1

>  <Value>
4000

$$$$
>  <Compound>
CC(C)C[C@H](NC(=O)[C@H](Cc1ccccc1)N=[N+]=[N-])C(=O)N[C@H](C(=O)N[C@H](/C=C/S(C)(=O)=O)Cc1ccc(CN)cc1)[C@@H](C)O

>  <Value>
110

$$$$
>  <Compound>
CC(C)C[C@H](NC(=O)[C@H](Cc1ccccc1)N=[N+]=[N-])C(=O)NCC(=O)N[C@H](/C=C/S(C)(=O)=O)Cc1ccc(CN)cc1

>  <Value>
2500

$$$$
>  <Compound>
COC1CCC(C[C@H](NC(=O)c2cnc(C)s2)C(=O)N[C@@H](CC(C)C)C(=O)N[C@H](/C=C/S(C)(=O)=O)Cc2ccc(CN)cc2)CC1 (some centres undefined)

>  <Value>
3100

$$$$
>  <Compound>
CC(C)C[C@H](NC(=O)[C@H](Cc1ccccc1)N=[N+]=[N-])C(=O)N[C@@H](CO)C(=O)N[C@H](/C=C/S(C)(=O)=O)Cc1ccc(CN)cc1

>  <Value>
230

$$$$
